B1: HEEH_KT_rd6_3546 (parent)
chain: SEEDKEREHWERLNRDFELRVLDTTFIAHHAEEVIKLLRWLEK

Variants of: B1
Assay: folding stability dG (cDNA display proteolysis); higher = more stable
Conditions: PBS, room temperature
measured-metric: folding stability dG (kJ/mol)

1) K36M; 8.08
2) R7I; 5.68
3) H9G; 5.92
